Reference source for all entries: PubChem BioAssay (NCI)

Tested on: SK-MEL-5 melanoma
protocol-details: NCI tumour cell line growth inhibition, 48 h

{"compound": "CCOC(=O)C1=C(C)N(Cc2ccccc2)C2(O)C=CC(=O)C3=C(O)c4ccccc4C(=O)C312 (stereo unspecified)", "TGI": "22 µM"}
{"compound": "C/C(CC(=O)Nc1cccc([N+](=O)[O-])c1)=N\\NC(=O)CC#N", "TGI": "> 100 µM"}
{"compound": "Cc1c(Cl)cccc1NC(=O)c1sc2nc3c(cc2c1N)CCCC3", "TGI": "> 100 µM"}
{"compound": "O=[N+]([O-])/C(C(Cl)=C(Cl)Cl)=C(/Nc1ccccc1)Sc1ccccc1", "TGI": "36.7 µM"}
{"compound": "O=C(Cc1ccccc1)NN1C(=O)/C(=C\\c2ccccc2O)SC1=Nc1ccccc1", "TGI": "> 100 µM"}
{"compound": "COc1cccc(NC2=C(Cl)C(=O)N(Cc3ccc(Cl)cc3)C2=O)c1", "TGI": "6.09 µM"}
{"compound": "CCOC(=O)Cn1c(=O)c(C)cn(COCCO)c1=O", "TGI": "> 100 µM"}
{"compound": "Clc1cc2nnn(C3CCCO3)c2cc1Cl (stereo unspecified)", "TGI": "> 100 µM"}
{"compound": "COc1cc(-c2cc(=O)c3c(O)c(OC)c(OC)c(OC)c3o2)cc(OC)c1OC", "TGI": "> 100 µM"}
{"compound": "CC(=O)NC(CCCN(Cc1ccccc1)C(=O)N(C)N=O)C(=O)NCc1ccccc1 (stereo unspecified)", "TGI": "> 100 µM"}
{"compound": "Cc1ccc(/C=C2/N=C(N/N=C\\c3ccccc3)NC2=O)cc1", "TGI": "> 100 µM"}
{"compound": "CC/C(N)=N\\NC(=O)OC(C)(C)C", "TGI": "> 100 µM"}
{"compound": "C=C(C)[C@@H]1CC[C@]2(C(=O)NC(C)=O)CC[C@]3(C)[C@H](CC[C@@H]4[C@@]5(C)CCCNC(C)(C)[C@@H]5CC[C@]43C)[C@@H]12", "TGI": "3.15 µM"}
{"compound": "Cc1ccc(S(=O)(=O)Nn2c(O)c(C#N)c(-c3ccc([N+](=O)[O-])cc3)c(C#N)c2=O)cc1", "TGI": "> 100 µM"}
{"compound": "C(=C/c1nc2ccccc2o1)/c1ccc2c(c1)OCO2", "TGI": "56.6 µM"}
{"compound": "COc1ccc(-c2nc(C(=O)c3ccccc3)n(CC(=O)c3ccc(Cl)cc3)c2-c2ccc(OC)cc2)cc1", "TGI": "> 100 µM"}
{"compound": "CN(C)/C=C/C=C(/C=N/S(=O)(=O)C(F)(F)F)C1C=CN(S(=O)(=O)C(F)(F)F)C=C1", "TGI": "51.7 µM"}
{"compound": "COCCN1C(=O)C2c3[nH]c4ccccc4c3C3CCC(C(C)(C)C)CC3C2C1=O (stereo unspecified)", "TGI": "30.9 µM"}
{"compound": "C=CCNC(=S)/N=C/C(C(=O)Nc1ccccc1C)=C(\\C)O", "TGI": "> 100 µM"}
{"compound": "CC(N1CCOCC1)C(O)(c1ccccc1)c1ccccn1 (stereo unspecified)", "TGI": "> 100 µM"}
{"compound": "N#Cc1nc(/C=C/c2cccnc2)oc1N", "TGI": "> 100 µM"}
{"compound": "COc1cc(/C=N/NC(=O)c2ccccc2Nc2cccc(C(F)(F)F)c2)cc(OC)c1OC", "TGI": "10.8 µM"}
{"compound": "Cc1ccc(-c2n[nH]c(=O)c3noc(-c4ccc(C)cc4)c23)cc1", "TGI": "> 100 µM"}
{"compound": "O=S(=O)(O)c1ccc2c(N=Nc3ccc(Sc4ccc(N=Nc5c(O)ccc6cc(S(=O)(=O)O)ccc56)cc4)cc3)c(O)ccc2c1", "TGI": "> 100 µM"}
{"compound": "Cc1c(Cl)c(C)c(Cc2c(C)c(Cl)c(C)c(Cl)c2O)c(O)c1Cl", "TGI": "3.33 µM"}
{"compound": "O=C(CCC1CCCCN1)Nc1ccc2c(c1)C(=O)c1ccc(NC(=O)CCN3CCCCC3)cc1C2=O (stereo unspecified)", "TGI": "3.27 µM"}
{"compound": "COc1cc2c(cc1OCCCOc1ccc(-c3nc4ccc(N5CCN(C)CC5)cc4[nH]3)cc1)N=C[C@@H]1CCCN1C2=O", "TGI": "< 0.01 µM"}
{"compound": "CCOC(=O)C(C)N1C(=O)c2ccccc2S1(=O)=O (stereo unspecified)", "TGI": "> 100 µM"}
{"compound": "CC(NC(=O)C(Cc1ccc(OC(=O)c2ccccc2)cc1)NC(=O)OC(C)(C)C)C(=O)NCC(=O)NC(Cc1ccccc1)C(=O)NN (stereo unspecified)", "TGI": "> 100 µM"}
{"compound": "Cc1ccc(S[C@@H](C)[C@@](O)(C(N)=O)c2ccccc2)cc1", "TGI": "81.1 µM"}
{"compound": "O=S(=O)(O)SCCNCCCCCC1CCCCC1", "TGI": "31.9 µM"}
{"compound": "CCOC(=O)c1cc(Br)c(-c2cc(C)co2)[nH]1", "TGI": "> 100 µM"}
{"compound": "Cc1cc2ccc(N)nc2[nH]c1=O", "TGI": "> 100 µM"}
{"compound": "CCOC(=O)/C=C/[C@@H](CC)O[Si](C(C)C)(C(C)C)C(C)C", "TGI": "> 100 µM"}
{"compound": "CC1C2(C)OCC(C#N)(C(=N)O2)C1(C#N)C#N (stereo unspecified)", "TGI": "23.4 µM"}
{"compound": "O=c1[nH]nc(-c2ccccc2)n1-n1cnnc1", "TGI": "> 100 µM"}
{"compound": "Cc1cc2nc(-c3c(F)cccc3Cl)n(Cc3c(F)cccc3Cl)c2cc1C", "TGI": "23.6 µM"}
{"compound": "CCc1cc(Cc2ccc(C)c(NC(=O)C(=O)C3C(=O)NC(=O)NC3=O)c2CC)cc(C)c1NC(=O)C(=O)C1C(=O)NC(=O)NC1=O", "TGI": "> 100 µM"}
{"compound": "CNC(c1ccncc1)C(NC)c1ccncc1 (stereo unspecified)", "TGI": "> 100 µM"}
{"compound": "CCCCCCCCCCCCCCCCOCC(O)CO (stereo unspecified)", "TGI": "71.9 µM"}
{"compound": "CCCCNC1=C(C(=O)OCC)/C(=N/NC(=O)c2ccccc2O)CO1", "TGI": "> 100 µM"}
